molecular target: vasopressin V1 receptor (rat liver plasma membranes) (Rattus norvegicus); test: Binding Assay to Rat Hepatic V1 Receptors; conditions: rat hepatic V1
Sequence (P30560 whole entry): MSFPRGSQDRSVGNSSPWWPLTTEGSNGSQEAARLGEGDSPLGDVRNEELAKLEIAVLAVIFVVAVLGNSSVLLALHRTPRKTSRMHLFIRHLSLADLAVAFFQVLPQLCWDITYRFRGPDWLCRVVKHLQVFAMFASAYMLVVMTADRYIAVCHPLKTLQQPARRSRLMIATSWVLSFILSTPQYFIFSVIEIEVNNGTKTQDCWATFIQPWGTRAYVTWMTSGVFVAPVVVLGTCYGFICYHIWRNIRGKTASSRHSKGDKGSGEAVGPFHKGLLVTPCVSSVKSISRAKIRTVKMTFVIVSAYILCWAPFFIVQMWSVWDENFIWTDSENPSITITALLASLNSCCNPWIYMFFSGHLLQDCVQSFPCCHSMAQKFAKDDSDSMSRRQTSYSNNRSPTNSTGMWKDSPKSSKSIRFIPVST
pIC50: −log10 of the molar value.
Result type: pIC50

Some molecules with known pIC50 results, for comparison:
> print(dat)
                            compound.string  observed.value
1  Cc1ccccc1C(=O)Nc1ccc(C(=O)N2Cc3ccccc3Cc3ccccc32)c(Cl)c1            6.92
2  O=C(Nc1ccc(C(=O)N2Cc3ccccc3Sc3ccccc32)cc1)c1ccccc1Cl            7.14
3  Cc1ccccc1NC(=O)c1ccc(C(=O)N2Cc3ccccc3Cc3ccccc32)cc1            7.37

A: O=C(Nc1ccc(C(=O)N2Cc3ccccc3Cc3ccccc32)cc1)c1cccc(C(F)(F)F)c1
B: Cc1c(F)cccc1C(=O)Nc1ccc(C(=O)N2Cc3ccccc3Cc3ccccc32)cc1
C: O=C(Nc1ccc(C(=O)N2Cc3ccccc3Cc3ccccc32)cc1)c1cccc(Cl)c1Cl
D: COc1cc(Cl)ccc1C(=O)Nc1ccc(C(=O)N2Cc3ccccc3Cc3ccccc32)cc1
Q: Ascending by pIC50, please. # answer = labels listed in requested order
A: A, D, C, B
